Cited source for all entries: patent US6905854B2

Measured kcat, listed per entry.
Experiment: Kinetic assay of purified DAOCS with penicillin N as main substrate
Assay type: biochemical
Conditions: for penicillin N; 0.5 μg purified DAOCS, 30° C., 10 minutes
PROPERTY_NAME: kcat (S^−1)

* YS8: mutated penicillin expandase (DAOCS) with substitution I305L (protein, UniProt P18548 1-311, looked up, variant I305L) Deacetoxycephalosporin C …: MDTTVPTFSLAELQQGLHQDEFRRCLRDKGLFYLTDCGLTDTELKSAKDLVIDFFEHGSEAEKRAVTSPVPTMRRGFTGLESESTAQITNTGSYSDYSMCYSMGTADNLFPSGDFERIWTQYFDRQYTASRAVAREVLRATGTEPDGGVEAFLDCEPLLRFRYFPQVPEHRSAEEQPLRMAPHYDLSMVTLIQQTPCANGFVSLQAEVGGAFTDLPYRPDAVLVFCGAIATLVTGGQVKAPRHHVAAPRRDQIAGSSRTSSVFFLRPNADFTFSVPLARECGFDVSLDGETATFQDWIGGNYVNLRRTSKA | 0.284
* YS12: mutated penicillin expandase (DAOCS) with substitution N304K (protein, UniProt P18548 1-311, looked up, variant N304K) Deacetoxycephalosporin C …: MDTTVPTFSLAELQQGLHQDEFRRCLRDKGLFYLTDCGLTDTELKSAKDLVIDFFEHGSEAEKRAVTSPVPTMRRGFTGLESESTAQITNTGSYSDYSMCYSMGTADNLFPSGDFERIWTQYFDRQYTASRAVAREVLRATGTEPDGGVEAFLDCEPLLRFRYFPQVPEHRSAEEQPLRMAPHYDLSMVTLIQQTPCANGFVSLQAEVGGAFTDLPYRPDAVLVFCGAIATLVTGGQVKAPRHHVAAPRRDQIAGSSRTSSVFFLRPNADFTFSVPLARECGFDVSLDGETATFQDWIGGNYVKIRRTSKA | 0.366
* YS125: mutated DAOCS with substitution N304L as disclosed in Chin H. S. et al (protein, UniProt P18548 1-311, looked up, variant N304L) Deacetoxycephalosporin C …: MDTTVPTFSLAELQQGLHQDEFRRCLRDKGLFYLTDCGLTDTELKSAKDLVIDFFEHGSEAEKRAVTSPVPTMRRGFTGLESESTAQITNTGSYSDYSMCYSMGTADNLFPSGDFERIWTQYFDRQYTASRAVAREVLRATGTEPDGGVEAFLDCEPLLRFRYFPQVPEHRSAEEQPLRMAPHYDLSMVTLIQQTPCANGFVSLQAEVGGAFTDLPYRPDAVLVFCGAIATLVTGGQVKAPRHHVAAPRRDQIAGSSRTSSVFFLRPNADFTFSVPLARECGFDVSLDGETATFQDWIGGNYVLIRRTSKA | 0.415
